Where do these numbers come from? They come from patent US20070185028A1.

biological target: Aβ (Homo sapiens, UniProt P05067); experiment: Aβ Thioflavin T fluorescence (fibrillization, 50° C., 72 hours); type: biochemical; details: Thioflavin T; 1:10 Aβ:peptide; 50° C., 72 hours
Assign Δfluorescence (Aβ) to each entry below.

Qu. Entry STSLSPFYLRPPSFLRAP has what Δfluorescence (Aβ)?
Ans. 478,389,568

Qu. Also need LTITSSLSSDGV , thanks.
Ans. 352,301,312

Qu. Also need ERTIPITRE , thanks.
Ans. 576,742,720

Qu. Also need DRFSVNLDVKHFS , thanks.
Ans. 264,396,672

Qu. Also need HGKHEERQDE , thanks.
Ans. 796,478,624

====

molecular target: transthyretin (TTR) (Homo sapiens, UniProt P02766); construct: purchased Sigma-Aldrich; experiment: Transthyretin fibrillation ThT assay; format: biochemical; settings: five αB crystallin peptides and control
measured-property: effect on TTR fibril formation, overall

- STSLSPFYLRPPSFLRAP: partially inhibited
- LTITSSLSSDGV: partially inhibited

====

Target: γD crystallin (Homo sapiens)
Sequence (P07320 2-174): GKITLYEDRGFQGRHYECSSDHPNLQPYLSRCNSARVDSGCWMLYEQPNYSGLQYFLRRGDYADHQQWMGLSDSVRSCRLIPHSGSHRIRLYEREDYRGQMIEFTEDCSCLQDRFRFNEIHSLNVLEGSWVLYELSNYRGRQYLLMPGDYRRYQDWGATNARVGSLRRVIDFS
Test: γD crystallin Thioflavin T fluorescence (fibrillization)
Format: biochemical
Details: Thioflavin T; 1:1 γD crystallin:peptide; 50° C., 72 hours
measured-property: Δfluorescence (γD crystallin)

Qu. Entry LTITSSLSSDGV has what Δfluorescence (γD crystallin)?
Ans. 675,352,992

Qu. Also need ERTIPITRE , thanks.
Ans. 611,017,728

Qu. Also need HGKHEERQDE , thanks.
Ans. 734,394,240

Qu. Also need STSLSPFYLRPPSFLRAP , thanks.
Ans. 606,290,176

Qu. Also need DRFSVNLDVKHFS , thanks.
Ans. 661,038,176
